Test system: HeLa
PROTOCOL_DESCRIPTION: Proliferation assay (crystal violet), HeLa
Type: cell-based
COND: Homo sapiens, HeLa, 96 h, HeLa cells; 4 days incubation; crystal violet staining; read-out: IC50 inhibition of proliferation, HeLa
Please respond with reported IC50 for every item in the list.
Numeric answer only, unit nM assumed.

What reported IC50 corresponds to Cc1nsc(Nc2cnc(C(F)(F)F)cn2)c1C(=O)Nc1ccc(OC[C@@H]2CCCN(CC(F)(F)F)C2)nc1 [Example 376] on HeLa?
310

What reported IC50 corresponds to Cc1nsc(Nc2cnc3ccccc3n2)c1C(=O)Nc1cccc(NS(=O)(=O)C2CCN(C(=O)OC(C)(C)C)C2)c1 (centres unmarked) [Example 290] on HeLa?
8800

What reported IC50 corresponds to CCCN1CCC(COc2ccc(NC(=O)c3c(C)nsc3Nc3cnc(C(F)(F)F)cn3)cn2)C(F)(F)C1 (centres unmarked) [Example 394] on HeLa?
380

What reported IC50 corresponds to Cc1nsc(Nc2cnc(C(F)(F)F)cn2)c1C(=O)Nc1ccc(F)c(OC[C@H]2CCCN(CC(F)F)C2)c1 [Example 400] on HeLa?
770

What reported IC50 corresponds to Cc1nsc(Nc2cnc(C(F)(F)F)cn2)c1C(=O)Nc1ccc(C(=O)NC2CCN(CC(F)(F)F)CC2)cc1 [Example 165] on HeLa?
3200

What reported IC50 corresponds to CCN1CCC(COc2ccc(NC(=O)c3c(C)nsc3Nc3cnc(C(F)(F)F)cn3)cn2)C(F)(F)C1 (centres unmarked) [Example 393] on HeLa?
430

What reported IC50 corresponds to Cc1nsc(Nc2cnc(C(F)(F)F)cn2)c1C(=O)Nc1ccc(F)c(OCC2CCN(CC(F)F)C2)c1 (centres unmarked) [Example 316] on HeLa?
430

What reported IC50 corresponds to Cc1nsc(Nc2cnc(C(F)(F)F)cn2)c1C(=O)Nc1ccc(F)c(OC[C@@H]2CCN(CCC(F)(F)F)C2)c1 [Example 340] on HeLa?
430

What reported IC50 corresponds to Cc1nsc(Nc2cnc(C(F)(F)F)cn2)c1C(=O)Nc1ccc(OCCNCCF)nc1 [Example 321] on HeLa?
3400

What reported IC50 corresponds to Cc1nsc(Nc2cnc(C(F)(F)F)cn2)c1C(=O)Nc1ccc(O[C@H]2CCN(CC(F)F)C[C@H]2F)nc1 [Example 144] on HeLa?
160

What reported IC50 corresponds to Cc1nsc(Nc2cnc(C(F)(F)F)cn2)c1C(=O)Nc1ccc(F)c(OC2CCN(C(=O)OC(C)(C)C)CC2)c1 [Example 229] on HeLa?
190

What reported IC50 corresponds to Cc1nsc(Nc2cnc(C(F)(F)F)cn2)c1C(=O)Nc1ccc(N(C)C)c(OCCCN(C)CCC(F)(F)F)c1 [Example 300] on HeLa?
550

What reported IC50 corresponds to Cc1nsc(Nc2cnc(C(F)(F)F)cn2)c1C(=O)Nc1ccc(C(=O)O)cc1 [Example 97] on HeLa?
10000

What reported IC50 corresponds to Cc1nsc(Nc2cncc(C(F)(F)F)n2)c1C(=O)Nc1ccc(C(=O)OC(C)(C)C)cc1 [Example 193] on HeLa?
2700

What reported IC50 corresponds to Cc1nsc(Nc2ccc(C#N)cn2)c1C(=O)Nc1ccc(OC2CCNCC2)nc1 [Example 28] on HeLa?
3700

What reported IC50 corresponds to Cc1nsc(Nc2cncc(C(F)(F)F)n2)c1C(=O)Nc1ccc(C(=O)NCCN2CCCC(F)(F)C2)cc1 [Example 214] on HeLa?
4600

What reported IC50 corresponds to CC(=O)N[C@H]1CCN(C(=O)c2cccc(NC(=O)c3c(C)nsc3Nc3cnc4ccccc4n3)c2)C1 [Example 86] on HeLa?
10000

What reported IC50 corresponds to Cc1nsc(Nc2cnc(C(F)(F)F)cn2)c1C(=O)Nc1ccc(CCC2CCN(CC(F)F)CC2)nc1 [Example 356] on HeLa?
770

What reported IC50 corresponds to Cc1nsc(Nc2cncc(C(F)(F)F)n2)c1C(=O)Nc1ccc(C(=O)N2CCN(CC(F)(F)F)CC2)cc1 [Example 272] on HeLa?
5800

What reported IC50 corresponds to Cc1nsc(Nc2cncc(C(F)(F)F)n2)c1C(=O)Nc1ccc(OC2CCN(C(C)C)CC2)nc1 [Example 218] on HeLa?
9900

What reported IC50 corresponds to Cc1nsc(Nc2cnc3ccccc3n2)c1C(=O)Nc1ccc(OC2CCN(CC(F)F)CC2)nc1 [Example 20] on HeLa?
1500

What reported IC50 corresponds to Cc1nsc(Nc2cnc3ccccc3n2)c1C(=O)Nc1cccc(C(=O)NCC(=O)O)c1 [Example 99] on HeLa?
10000

* * *

Test system: HeLa
PROTOCOL_DESCRIPTION: Proliferation assay (crystal violet), HeLa
Type: cell-based
COND: Homo sapiens, HeLa, 96 h, HeLa cells; 4 days incubation; crystal violet staining; read-out: IC50 inhibition of proliferation, HeLa
METRIC: pIC50
Quick note: pIC50 values are minus log10 of concentrations in mol/L.

Consider the compound CCN1CC[C@@H](Oc2ccc(NC(=O)c3c(C)nsc3Nc3cnc(C(F)(F)F)cn3)cn2)[C@H](F)C1 and give its measured pIC50.
6.41

Consider the compound Cc1nsc(Nc2cnc(C(F)(F)F)cn2)c1C(=O)Nc1ccc(N2CCN(CCC(F)(F)F)CC2)nc1 and give its measured pIC50.
6.42

Consider the compound Cc1nsc(Nc2cnc(C(F)(F)F)cn2)c1C(=O)Nc1ccc(O[C@H]2CCN(CCC(F)(F)F)C2)nc1 and give its measured pIC50.
6.47

Consider the compound Cc1nsc(Nc2cnc3ccccc3n2)c1C(=O)Nc1ccc(OC2CCNCC2)nc1 and give its measured pIC50.
5.46

* * *

TARGET_UNDER_TEST: human kinase Mps-1 (Homo sapiens)
Construct: N-terminally GST-tagged human full length recombinant Mps-1 kinase; GST (N)
Sequence (P33981 whole entry): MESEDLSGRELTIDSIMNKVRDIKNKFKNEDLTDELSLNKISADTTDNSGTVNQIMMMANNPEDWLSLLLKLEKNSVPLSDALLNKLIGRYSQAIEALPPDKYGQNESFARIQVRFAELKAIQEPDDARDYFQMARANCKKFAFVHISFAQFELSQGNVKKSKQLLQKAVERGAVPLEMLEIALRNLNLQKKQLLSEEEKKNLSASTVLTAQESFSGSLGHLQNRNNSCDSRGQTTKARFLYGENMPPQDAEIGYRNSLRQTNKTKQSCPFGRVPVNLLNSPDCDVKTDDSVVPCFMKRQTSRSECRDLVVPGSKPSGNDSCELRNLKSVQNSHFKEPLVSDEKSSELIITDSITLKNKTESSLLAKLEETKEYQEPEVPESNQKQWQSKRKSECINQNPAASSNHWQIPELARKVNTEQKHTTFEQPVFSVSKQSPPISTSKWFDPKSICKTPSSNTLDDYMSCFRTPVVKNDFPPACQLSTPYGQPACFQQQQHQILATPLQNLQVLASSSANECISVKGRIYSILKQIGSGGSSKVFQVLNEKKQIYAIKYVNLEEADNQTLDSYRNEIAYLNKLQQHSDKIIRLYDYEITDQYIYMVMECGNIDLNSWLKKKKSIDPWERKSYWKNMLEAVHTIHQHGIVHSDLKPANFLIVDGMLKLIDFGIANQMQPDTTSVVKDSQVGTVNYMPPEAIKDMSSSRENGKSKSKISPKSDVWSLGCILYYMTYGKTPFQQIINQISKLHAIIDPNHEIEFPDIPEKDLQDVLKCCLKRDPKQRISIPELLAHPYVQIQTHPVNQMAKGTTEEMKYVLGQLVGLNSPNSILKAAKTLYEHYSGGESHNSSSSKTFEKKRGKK
PROTOCOL_DESCRIPTION: Mps-1 kinase assay (TR-FRET)
COND: Mps-1 TR-FRET kinase assay; avg; read-out: Mps1 avg (IC50 [mol/l])
METRIC: IC50

Consider the molecule Cc1nsc(Nc2cnc(C(F)(F)F)cn2)c1C(=O)Nc1cccc(NC(=O)OC(C)(C)C)c1 [Example 284] and give its measured IC50.
> 20 µM

Consider the molecule Cc1nsc(Nc2cncc(C(F)(F)F)n2)c1C(=O)Nc1ccc(F)c(OC2CCN(CC(F)(F)F)CC2)c1 [Example 267] and give its measured IC50.
> 20 µM

Consider the molecule Cc1nsc(Nc2cnc3ccccc3n2)c1C(=O)Nc1cccc(-c2nnc(C(C)(C)C)o2)c1 [Example 107] and give its measured IC50.
≥ 20 µM

Consider the molecule Cc1nsc(Nc2ccc(C#N)cn2)c1C(=O)Nc1ccc(OC2CCCN(CCF)C2)nc1 (stereo not drawn) [Example 38] and give its measured IC50.
≥ 20 µM

Consider the molecule Cc1nsc(Nc2cnc(C(F)(F)F)cn2)c1C(=O)Nc1ccc(OC[C@@H]2CCN(CC(F)(F)F)C2)nc1 [Example 128] and give its measured IC50.
> 20 µM

Consider the molecule Cc1nsc(Nc2cncc(C(F)(F)F)n2)c1C(=O)Nc1ccc(OC2CCNCC2)nc1 [Example 13] and give its measured IC50.
≥ 20 µM

Consider the molecule Cc1nsc(Nc2nc3c(C(F)(F)F)cccc3s2)c1C(=O)Nc1ccc(OCCO)c(F)c1 [Example 4] and give its measured IC50.
≥ 20 µM

Consider the molecule Cc1nsc(Nc2cnc3ccccc3n2)c1C(=O)Nc1cccc(C(=O)NC2CC2)c1 [Example 249] and give its measured IC50.
> 20 µM

Consider the molecule CCNC(=O)c1cccc(NC(=O)c2c(C)nsc2Nc2ccc(C#N)cn2)c1 [Example 252] and give its measured IC50.
> 20 µM

Consider the molecule Cc1nsc(Nc2cc(C#N)ccn2)c1C(=O)Nc1ccc(Oc2cccnc2)nc1 [Example 119] and give its measured IC50.
≥ 20 µM

Consider the molecule Cc1nsc(Nc2cc(C#N)ccn2)c1C(=O)Nc1ccc(OC2CCN(CC(F)F)CC2)nc1 [Example 263] and give its measured IC50.
> 20 µM

Consider the molecule Cc1nsc(Nc2cnc(C(F)(F)F)cn2)c1C(=O)Nc1ccc(OCCN(C)C(=O)OC(C)(C)C)nc1 [Example 429] and give its measured IC50.
> 20 µM

Consider the molecule Cc1nsc(Nc2cnc(C(F)(F)F)cn2)c1C(=O)Nc1ccc(N(C)C)c(OCCCN(C)CCC(F)(F)F)c1 [Example 300] and give its measured IC50.
> 20 µM

Consider the molecule Cc1nsc(Nc2cncc(C(F)(F)F)n2)c1C(=O)Nc1ccc(C(=O)NC2CCN(C(=O)OC(C)(C)C)CC2)cc1 [Example 222] and give its measured IC50.
> 20 µM

Consider the molecule CC(=O)Nc1cc(NC(=O)c2c(C)nsc2Nc2cnccn2)ccc1F [Example 205] and give its measured IC50.
> 20 µM

Consider the molecule Cc1nsc(Nc2cncc(C(F)(F)F)n2)c1C(=O)Nc1ccc(C(=O)NCCN2CCCC(F)C2)cc1 (stereo not drawn) [Example 155] and give its measured IC50.
18 µM

Consider the molecule Cc1nsc(Nc2cnc(C(F)(F)F)cn2)c1C(=O)Nc1ccc(F)c(OCC2CCN(CC(F)F)C2)c1 (stereo not drawn) [Example 316] and give its measured IC50.
≥ 20 µM

Consider the molecule Cc1nsc(Nc2cnc3cc(F)ccc3n2)c1C(=O)Nc1ccc(S(N)(=O)=O)cc1 [Example 149] and give its measured IC50.
> 20 µM

Consider the molecule Cc1nsc(Nc2cnccn2)c1C(=O)Nc1ccc(C(=O)OC(C)(C)C)cc1 [Example 184] and give its measured IC50.
> 20 µM

Consider the molecule Cc1nsc(Nc2cnc(C(F)(F)F)cn2)c1C(=O)Nc1ccc(C(=O)NC2CCN(CC(F)(F)F)CC2)cc1 [Example 165] and give its measured IC50.
> 20 µM

Consider the molecule Cc1nsc(Nc2cc(C#N)ccn2)c1C(=O)Nc1ccc(OC2CCCNC2)nc1 (stereo not drawn) [Example 35] and give its measured IC50.
≥ 20 µM

Consider the molecule Cc1nsc(Nc2cnc3ccccc3n2)c1C(=O)Nc1cccc(C(=O)N2CCOCC2)c1 [Example 52] and give its measured IC50.
18 µM

Consider the molecule Cc1nsc(Nc2cc(C#N)ccn2)c1C(=O)Nc1ccc(NC2CCCNC2)nc1 (stereo not drawn) [Example 242] and give its measured IC50.
> 20 µM

Consider the molecule Cc1nsc(Nc2cnc(C(F)(F)F)cn2)c1C(=O)Nc1ccc(N2CCN(CCC(F)(F)F)CC2)cn1 [Example 374] and give its measured IC50.
> 20 µM

Consider the molecule Cc1nsc(Nc2cncc(C(F)(F)F)n2)c1C(=O)Nc1ccc(OCCCO)nc1 [Example 278] and give its measured IC50.
> 20 µM

Consider the molecule Cc1nsc(Nc2cnc(C(F)(F)F)cn2)c1C(=O)Nc1ccc(C(=O)OC(C)(C)C)cc1 [Example 96] and give its measured IC50.
≥ 20 µM

Consider the molecule Cc1nsc(Nc2cnc(C(F)(F)F)cn2)c1C(=O)Nc1ccc(OC2CCN(CCC(F)(F)F)CC2)nc1 [Example 10] and give its measured IC50.
≥ 20 µM
